Each item that follows carries a reported T/C.
Tested on: L1210 leukemia ip in BDF1 mice, survival T/C
assay info: NCI In Vivo Anticancer Drug Screen. Data for tumor model L1210 Leukemia (intraperitoneal) in B6D2F1 (BDF1) mice
setup conditions: endpoint: mean survival time; dose: 400.0 mg/kg/injection; schedule: Q01DX009 (ip); vehicle: saline with Tween-80; higher = longer survival
Inconclusive results and toxic doses are left out.
observed property: T/C

compound	recorded measurement
Cc1cccc(/C(=C/c2ccc([N+](=O)[O-])cc2)C(=O)Nc2ccc(S(=O)(=O)F)cc2)c1	96 % of control
c1ccc(N(c2ccccc2)c2ccccc2)cc1	95 % of control
COc1cc(C)ccc1C(=O)c1ccc(C)cc1OC	103 % of control
CCc1cc(C)cc(OC(=O)Nc2ccc(Cl)c(Cl)c2)c1	94 % of control
O=[N+]([O-])c1ccc2c(ccn2C2OCC(O)C(O)C2O)c1 (configuration not stated)	111 % of control
CCC(N)c1ccc2c3c(cccc13)CC2 (configuration not stated)	93 % of control
COC(=O)c1ccccc1-c1c(C)cccc1[N+](=O)[O-]	100 % of control
CCC(=O)C(CC)c1cccc(OC)c1 (configuration not stated)	114 % of control
[N-]=[N+]=c1c(=O)c2ccccc2c1=O	96 % of control
Cc1ccc([N+](=O)[O-])cc1NC(=O)C(Cl)(Cl)Cl	100 % of control
CCCCCCCCCCCCCCCC(=O)N(CCC#N)c1ccc(N(CCC#N)C(=O)CCCCCCCCCCCCCCC)cc1	86 % of control
CCOC(=O)CCC(NC(=O)c1cc(Cl)c(N(C)S(=O)(=O)c2ccc(C)cc2)cc1Cl)C(=O)OCC (configuration not stated)	94 % of control

====

Each item that follows carries a reported T/C.
Tested on: L1210 leukemia ip in BDF1 mice, survival T/C
assay info: NCI In Vivo Anticancer Drug Screen. Data for tumor model L1210 Leukemia (intraperitoneal) in B6D2F1 (BDF1) mice
setup conditions: endpoint: mean survival time; dose: 400.0 mg/kg/injection; schedule: Q01DX001 (ip); vehicle: carboxymethylcellulose (CMC); higher = longer survival
Experimental: The antitumor activity of compounds was measured in mice bearing transplantable tumors. Survival or tumor size were measured and the results are expressed as the measurement made in the treated group (T) divided by the measurement made in the vehicle treated control group (C). The tumor model used in this assay is L1210 Leukemia (intraperitoneal) in B6D2F1 (BDF1) mice
Inconclusive results and toxic doses are left out.

compound	T/C
CCOC(=O)c1oc2cc(O)cc(C)c2c1C	94 % of control
O=C(O)CN(CCN(CC(=O)O)CC(=O)O)CCN(CC(=O)O)CC(=O)O	96 % of control
COC1CC(OC2C(C)C(=O)OC(C)C(C)C(OC(C)=O)C(C)C(=O)C3(CO3)CC(C)C(OC3OC(C)CC(N(C)C)C3OC(C)=O)C2C)OC(C)C1OC(C)=O (stereo not given)	108 % of control
Cc1cc(=O)[nH]c2ccc(Cc3ccc(N)cc3)cc12	98 % of control
COc1cc(C2c3cc4c(cc3C(O)C(CO)C2CO)OCO4)cc(OC)c1OC (stereo not given)	98 % of control
O=[N+]([O-])c1ccc(SCc2ccc(Br)cc2)c([N+](=O)[O-])c1	95 % of control
OCC1OC(n2cnc3c(NO)ncnc32)CC1O (stereo not given)	109 % of control
CC1([N+](=O)[O-])COP(=O)(NCc2ccccn2)OC1 (stereo not given)	103 % of control
O=C(OC1COC(n2c(=O)oc3ccc(F)cc32)C(OC(=O)c2ccccc2)C1OC(=O)c1ccccc1)c1ccccc1 (stereo not given)	89 % of control
CCCCNC(=O)c1ncccc1C(=O)O	97 % of control
Nc1cc(Br)cc2[nH]c(=O)c3cc(Br)ccc3c12	102 % of control
O=C1NC(=O)C(c2ccccc2)(c2ccc(Cl)cc2Cl)N1 (stereo not given)	105 % of control
O=[N+]([O-])c1ccc(CSCc2ccc(Cl)cc2)cc1	94 % of control
O=C(O)C1CCC(C(=O)O)CC1 (stereo not given)	98 % of control
O=C1NC(=O)C(Cc2ccccc2)(Cc2ccccc2)C(=O)N1Cc1ccccc1	98 % of control
O=C1NC(=O)C2C3C(C(O)(c4ccccc4)c4ccccn4)=CC(/C3=C(\c3ccccc3)c3ccccn3)C12 (stereo not given)	104 % of control
CCCNC(=O)Nc1ccc(Cl)cc1	95 % of control
CCOC(=O)C1(Cc2ccccc2)CCCC1=O (stereo not given)	96 % of control
O=C(NCCNC(=O)c1ccncc1)c1ccccc1	98 % of control
BrCCC[CH2][Pb]([c]1ccccc1)([c]1ccccc1)[c]1ccccc1	100 % of control

====

System: L1210 leukemia ip in BDF1 mice, survival T/C
assay info: NCI In Vivo Anticancer Drug Screen. Data for tumor model L1210 Leukemia (intraperitoneal) in B6D2F1 (BDF1) mice
setup conditions: endpoint: mean survival time; dose: 50.0 mg/kg/injection; schedule: Q01DX009 (ip); vehicle: saline; higher = longer survival
Inconclusive results and toxic doses are left out.
Each item that follows carries a reported T/C.

compound	T/C
CC1(c2ccco2)NC(=O)N(Cl)C1=O (configuration not stated)	98 % of control
COc1cc(Cc2nccc3cc(OC)c(OC)cc23)c(C(C)=O)cc1OC	154 % of control
Cc1nc(-c2ccc(N=Cc3ccc(N(CCCl)CCCl)cc3)cc2)cs1	101 % of control
CC(C)(N)CNc1ccccc1	98 % of control
COc1ccc2c(C)[n+]3ccc4cc(OC)c(OC)cc4c3cc2c1 (tested in a mixture with another compound)	115 % of control
ClCCCNCc1ccccc1	97 % of control
CC(=O)C(Cl)C(O)(C(F)(F)F)C(F)(F)F (configuration not stated)	110 % of control

====

Test system: L1210 leukemia ip in BDF1 mice, survival T/C
assay info: NCI In Vivo Anticancer Drug Screen. Data for tumor model L1210 Leukemia (intraperitoneal) in B6D2F1 (BDF1) mice
setup conditions: endpoint: mean survival time; dose: 100.0 mg/kg/injection; schedule: Q04DX003 (ip); vehicle: saline with Tween-80; higher = longer survival
Inconclusive results and toxic doses are left out.

molecule	T/C
CCOC(=O)c1ccc(NC(=O)Nc2ccccc2Cl)cc1	91 % of control
Cc1ccc(CCl)cc1	100 % of control
O=C(/C(=N\N=C\c1c(O)ccc2ccccc12)c1ccccc1)c1ccccc1	96 % of control
CC(C)(C)C(=O)Nc1ccc(NS(=O)(=O)c2ccccc2)cc1	102 % of control
Cc1c(Cl)c(Cl)c(Cl)c(Cl)c1Cl	101 % of control
CC(=O)Nc1ccc2c(c1)C(NC(=O)/C=C\C(=O)O)c1ccccc1-2 (stereo unspecified)	111 % of control

====

Test system: L1210 leukemia ip in BDF1 mice, survival T/C
assay info: NCI In Vivo Anticancer Drug Screen. Data for tumor model L1210 Leukemia (intraperitoneal) in B6D2F1 (BDF1) mice
setup conditions: endpoint: mean survival time; dose: 200.0 mg/kg/injection; schedule: Q01DX001 (ip); vehicle: Klucel (hydroxypropylcellulose) (HPC); higher = longer survival
Toxic doses and inconclusive results are not listed.
observed property: T/C

compound	target system	observed property	recorded measurement
O=C1CC2(CCN(Cc3ccccc3)CC2)C(=O)N1Nc1ccccc1	L1210 leukemia ip in BDF1 mice, survival T/C	T/C	100 % of control
CCOC(=O)CCC(NC(=O)c1cc(Cl)c(N(C)S(=O)(=O)c2ccc(C)cc2)cc1Cl)C(=O)OCC (stereo not drawn)	L1210 leukemia ip in BDF1 mice, survival T/C	T/C	108 % of control
N#Cc1ccccc1CNc1ccccc1	L1210 leukemia ip in BDF1 mice, survival T/C	T/C	96 % of control
O=C1OCCN1C(=O)c1ccc(C(=O)N2CCOC2=O)cc1	L1210 leukemia ip in BDF1 mice, survival T/C	T/C	87 % of control
Nc1c(Cl)cc(Cl)c(-c2c(Cl)cc(Cl)c([N+](=O)[O-])c2Cl)c1Cl	L1210 leukemia ip in BDF1 mice, survival T/C	T/C	101 % of control
Nc1c(-c2ccccc2)[nH][nH]c1=O	L1210 leukemia ip in BDF1 mice, survival T/C	T/C	99 % of control
C/C(Cl)=C1\CCCC\C1=N\NC(N)=O	L1210 leukemia ip in BDF1 mice, survival T/C	T/C	98 % of control
COc1ccc([N+](=O)[O-])cc1NC(=O)N1CCCCC1C (stereo not drawn)	L1210 leukemia ip in BDF1 mice, survival T/C	T/C	102 % of control

====

Test system: L1210 leukemia ip in BDF1 mice, survival T/C
assay info: NCI In Vivo Anticancer Drug Screen. Data for tumor model L1210 Leukemia (intraperitoneal) in B6D2F1 (BDF1) mice
setup conditions: endpoint: mean survival time; dose: 200.0 mg/kg/injection; schedule: Q04DX003 (ip); vehicle: saline sonified; higher = longer survival
Inconclusive results and toxic doses are left out.
Each item that follows carries a reported T/C.

compound	T/C
CCOC(=O)C1CC(O)CN1 (stereo not drawn)	100 % of control
CC(=O)O/N=C(/C)c1ccccc1	97 % of control
Clc1ccc(CN2COc3c(ccc4cccnc34)C2)cc1Cl	94 % of control
